Recorded Reactivity (OD 492 nm) by entry
# assay-target: T1, HCV bt-134-154 (Peptide 1, HCVc 134-154) (Hepatitis C virus (numbering per HCV-1), biotin (carboxy-terminal per; N-terminal per))
# T1 peptide: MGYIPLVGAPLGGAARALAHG
# method-summary: EIA, captured mAb + biotin peptide
Kindly provide the numeric value in OD units only, without the unit symbol.

HCV 208A-210 (antibody, V domains shown) VH: QVQLQQSGPELVKPGASMRISCKASGYTFTSYYVHWIKQRPGQGLEWIGCIYPGDVNTDYNEKFKGKATLTADKSSSTAYMQVSTLTSEDSAIYFCVLYYYGSFAYWGQGTLVTVSA VL: EIVLTQSPAITAASLGQNVTITCRASSSVSYMHWYRQKSGTSPQLWIYEISRRASGVPARFRASGSGTSYSLTISSMEAEDAAIYYCQQWNYPLTFGAGTKLEVKR: 0.06
HCV 208A-638 (antibody, V domains shown) VH: QGQLQQPGAEFVKPGASLKLSCRASGYTFTSYWIHWVKQRPGQGLEWIGEVDPSDSYINQNEKFRGKATLTVDKSSSTAYMQLGSLTSEDSAVYYCARHYYGVLDSWGQGTALTVSS VL: QIVLTQSPTIMSASLGERVTMTCTASSSVSSSYLHWFQQKPGSSPKLWIYSTSNLASGVPPRFSGSGSGTSYSLSISSVEAEDVATYYCLQFHRSPWTFGGGAKLEIKR: 0.07

Could you now look at the following binder, please?
Reactivity (OD 492 nm) for HCV 208B-612 (antibody, V domains shown) VH: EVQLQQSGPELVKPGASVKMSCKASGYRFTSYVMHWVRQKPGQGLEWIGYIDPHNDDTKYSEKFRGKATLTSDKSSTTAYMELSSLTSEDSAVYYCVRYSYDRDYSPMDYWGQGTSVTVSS VL: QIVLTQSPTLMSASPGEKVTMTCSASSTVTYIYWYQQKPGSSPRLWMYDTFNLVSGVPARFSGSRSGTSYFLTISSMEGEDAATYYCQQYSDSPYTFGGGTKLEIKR ? 3.05

Recorded values, source patent US20170052184A1.
